Record form. Attribute: Papp. Fill in for each entry.
Experiment: Apparent permeability in MDCK cells by LC-MS/MS analysis
Assay type: ADME, cell-based, Canis lupus familiaris
Settings: dog

Some solved entries appear below for comparison.
compound structure	result
N#Cc1ccc(COc2nc(N3CCC4(CC3)C[C@@H]4c3nc4ccc(C(=O)O)cc4n3C[C@@H]3CCO3)c(F)cc2F)c(F)c1	50 nm/s
O=C(O)c1ccc2nc([C@H]3CC34CCN(c3nc(OCc5ccc(Cl)cc5F)ncc3F)CC4)n(C[C@@H]3CCO3)c2n1	70 nm/s
O=C(O)c1ccc2nc([C@H]3CC34CCN(c3nc(OCc5ccc(Cl)cc5F)ncc3F)CC4)n(C[C@H]3CCO3)c2c1	50 nm/s
O=C(O)c1ccc2nc([C@H]3CC34CCN(c3ncc(F)c(OCc5ccc(Cl)cc5F)n3)CC4)n(C[C@@H]3CCO3)c2c1	30 nm/s

Moving on to the next molecule.
Req: Quick one: Papp for `O=C(O)c1ccc2nc([C@H]3CC34CCN(c3nccc(OCc5ccc(Cl)cc5F)n3)CC4)n(C[C@@H]3CCO3)c2c1` ?
Resp: 20 nm/s
